These data points were gathered from paper PMC7407491.

Recorded MIC, one value per entry.
Tested on: Escherichia coli
experimental-protocol: Antibiogram of clinical isolate
Format: cell-based
study-conditions: Escherichia coli; multi-drug resistant veterinary clinical isolate; read-out: MIC

CC1(C)S[C@@H]2[C@H](NC(=O)[C@H](N)c3ccccc3)C(=O)N2[C@H]1C(=O)O [Ampicillin]; > 46 µg/mL
CNC(C)C1CCC(N)C(OC2C(N)CC(N)C(OC3OCC(C)(O)C(NC)C3O)C2O)O1 (stereo not shown) [Gentamicin]; 2.6 µg/mL
CO[C@@]1(NC(=O)Cc2cccs2)C(=O)N2C(C(=O)O)=C(COC(N)=O)CS[C@@H]21 [Cefoxitin]; > 69 µg/mL

Would you kindly look at the next entry?
Endpoint output: MIC of C[C@@H]1CN(c2c(F)c(F)c3c(=O)c(C(=O)O)cn(C4CC4)c3c2F)C[C@H](C)N1 [Orbifloxacin] . Value? > 40 µg/mL

====

Recorded diameter zone of inhibition against antibiotic disc, one value per entry.
System: Methicillin Resistant Staphylococcus aureus
experimental-protocol: Antibiogram of clinical isolate
Format: cell-based
study-conditions: veterinary clinical isolate
Method: Veterinary clinical isolates, including Salmonella typhimurium, multi-drug resistant Escherichia coli, methicillin-resistant Staphylococcus aureus (MRSA), and methicillin-resistant Staphylococcus pseudointermedius (MRSP), were kindly provided by Dr. H. Cai (Department of Pathobiology, University of Guelph, ON, Canada). An antibiogram for these strains is available in the supplementary text (Table S1). Gram-negative strains were cultured in Luria−Bertani (LB) broth. […]
Please answer using a numeric value trailed by its unit.

Please review the entries below; each comes with its answer.
CC(=O)OCC1=C(C(=O)O)N2C(=O)[C@@H](NC(=O)Cc3cccs3)[C@H]2SC1 [Cephalothin]; 25 mm
CN1CCN(c2c(F)cc3c(=O)c(C(=O)O)cn4c3c2OCN4C)CC1 [Marbofloxacin]; 27 mm
CN1CCN(c2cc3c(cc2F)c(=O)c(C(=O)O)cn3-c2ccc(F)cc2)CC1 [Difloxacin]; 30 mm
CNC(C)C1CCC(N)C(OC2C(N)CC(N)C(OC3OCC(C)(O)C(NC)C3O)C2O)O1 (stereo not drawn) [Gentamicin]; 9 mm
C=CC1=C(C(=O)O)N2C(=O)[C@@H](NC(=O)/C(=N\OCC(=O)O)c3csc(N)n3)[C@H]2SC1 [Cefixime]; 6 mm

Endpoint output: diameter zone of inhibition against antibiotic disc of Cc1onc(-c2ccccc2)c1C(=O)N[C@@H]1C(=O)N2[C@@H]1SC(C)(C)[C@@H]2C(=O)O [Oxacillin] . Value? 6 mm

====

Recorded diameter zone of inhibition against antibiotic disc, one value per entry.
System: Methicillin Resistant Staphylococcus aureus
experimental-protocol: Antibiogram of clinical isolate
Assay type: cell-based
study-conditions: veterinary clinical isolate
Numeric only. Scale: mm

Please review the entries below; each comes with its answer.
CC1(C)S[C@@H]2[C@H](NC(=O)[C@H](N)c3ccccc3)C(=O)N2[C@H]1C(=O)O; 11
CC1(C)S[C@@H]2[C@H](NC(=O)C(C(=O)O)c3ccccc3)C(=O)N2[C@H]1C(=O)O (stereo partly shown); 15
NCC[C@H](O)C(=O)N[C@@H]1C[C@H](N)[C@@H](O[C@H]2O[C@H](CN)[C@@H](O)[C@H](O)[C@H]2O)[C@H](O)[C@H]1O[C@H]1O[C@H](CO)[C@@H](O)[C@H](N)[C@H]1O; 18

Would you kindly look at the next entry?
Endpoint output: diameter zone of inhibition against antibiotic disc of `CO/N=C(\C(=O)N[C@@H]1C(=O)N2C(C(=O)O)=C(CSC(=O)c3ccco3)CS[C@H]12)c1csc(N)n1` . Value? 19

====

System: Methicillin Resistant Staphylococcus aureus
experimental-protocol: Antibiogram of clinical isolate
Format: cell-based
study-conditions: Staphylococcus aureus; veterinary clinical isolate; read-out: MIC
Recorded MIC, one value per entry.

C=CC1=C(C(=O)O)N2C(=O)[C@@H](NC(=O)/C(=N\OCC(=O)O)c3csc(N)n3)[C@H]2SC1; > 26 µg/mL
C[C@@H](O)[C@H]1C(=O)N2C(C(=O)O)=C(SCCN=CN)C[C@H]12; ≤ 0.56 µg/mL
CC1(C)S[C@@H]2[C@H](NC(=O)[C@H](N)c3ccccc3)C(=O)N2[C@H]1C(=O)O; 19 µg/mL

Endpoint output: MIC of `NCC[C@H](O)C(=O)N[C@@H]1C[C@H](N)[C@@H](O[C@H]2O[C@H](CN)[C@@H](O)[C@H](O)[C@H]2O)[C@H](O)[C@H]1O[C@H]1O[C@H](CO)[C@@H](O)[C@H](N)[C@H]1O` . Value? 9.5 µg/mL

Also `C[C@@H]1CN(c2c(F)c(F)c3c(=O)c(C(=O)O)cn(C4CC4)c3c2F)C[C@H](C)N1` ? 0.25 µg/mL

Also `CCC[C@@H]1C[C@@H](C(=O)N[C@@H]([C@H]2O[C@H](SC)[C@H](O)[C@@H](O)[C@H]2O)[C@H](C)Cl)N(C)C1` ? > 10 µg/mL

Also `CC(=O)OCC1=C(C(=O)O)N2C(=O)[C@@H](NC(=O)Cc3cccs3)[C@H]2SC1` ? 2.2 µg/mL

====

Tested on: Methicillin Resistant Staphylococcus aureus
experimental-protocol: Antibiogram of clinical isolate
Type: cell-based
study-conditions: Staphylococcus aureus; veterinary clinical isolate; read-out: MIC
measured-property: MIC (µg/mL)
Numeric only. Scale: µg/mL

Please review the entries below; each comes with its answer.
CC(C)(O/N=C(\C(=O)N[C@@H]1C(=O)N2C(C(=O)[O-])=C(C[n+]3ccccc3)CS[C@H]12)c1csc(N)n1)C(=O)O; 41
CN(C)[C@@H]1C(O)=C(C(N)=O)C(=O)[C@@]2(O)C(O)=C3C(=O)c4c(O)cccc4[C@@](C)(O)[C@H]3C[C@@H]12; 0.42
CO/N=C(\C(=O)N[C@@H]1C(=O)N2C(C(=O)O)=C(CSC(=O)c3ccco3)CS[C@H]12)c1csc(N)n1; 3.9
CNC(C)C1CCC(N)C(OC2C(N)CC(N)C(OC3OCC(C)(O)C(NC)C3O)C2O)O1 (stereo not shown); 31

Endpoint output: MIC of `O=C(N[C@H](CO)[C@H](O)c1ccc([N+](=O)[O-])cc1)C(Cl)Cl` . Value? 4.5

====

System: Methicillin Resistant Staphylococcus aureus
experimental-protocol: Antibiogram of clinical isolate
Type: cell-based
study-conditions: veterinary clinical isolate
measured-property: diameter zone of inhibition against antibiotic disc (mm)
Numeric only. Scale: mm

Please review the entries below; each comes with its answer.
C[C@@H](O)[C@H]1C(=O)N2C(C(=O)O)=C(SCCN=CN)C[C@H]12 [Imipenem]; 39
O=C(N[C@H](CO)[C@H](O)c1ccc([N+](=O)[O-])cc1)C(Cl)Cl [Chloramphenicol]; 26
C[C@@H]1CN(c2c(F)c(F)c3c(=O)c(C(=O)O)cn(C4CC4)c3c2F)C[C@H](C)N1 [Orbifloxacin]; 27
CCN1CCN(C(=O)N[C@@H](C(=O)N[C@@H]2C(=O)N3[C@@H]2SC(C)(C)[C@@H]3C(=O)O)c2ccccc2)C(=O)C1=O [Piperacillin]; 12
CCN1CCN(c2cc3c(cc2F)c(=O)c(C(=O)O)cn3C2CC2)CC1 [Enrofloxacin]; 29

Endpoint output: diameter zone of inhibition against antibiotic disc of CC1(C)S[C@@H]2[C@H](NC(=O)[C@H](C(=O)O)c3ccsc3)C(=O)N2[C@H]1C(=O)O [Ticarcillin] . Value? 14

Also CCC[C@@H]1C[C@@H](C(=O)N[C@@H]([C@H]2O[C@H](SC)[C@H](O)[C@@H](O)[C@H]2O)[C@H](C)Cl)N(C)C1 [Clindamycin] ? 6

Also CC(C)(O/N=C(\C(=O)N[C@@H]1C(=O)N2C(C(=O)[O-])=C(C[n+]3ccccc3)CS[C@H]12)c1csc(N)n1)C(=O)O [Ceftazidime] ? 13

Also CN(C)[C@@H]1C(O)=C(C(N)=O)C(=O)[C@@]2(O)C(O)=C3C(=O)c4c(O)cccc4[C@@](C)(O)[C@H]3C[C@@H]12 [Tetracycline] ? 31
